Numbers sourced from patent US12606528B2.

IC50 values for the compounds below.
Test system: NF-κB
Procedure summary: NF-κB assay: THP1-NF-κB-LUC cells, LPS-stimulated secreted luciferase
Assay type: cell-based
Condition details: THP1-NF-κB-LUC cells; compounds 2 hours before LPS (10 ng/mL) for 18 hours; secreted luciferase; read-out: IC50 (NF-κB assay)
Method: FIG. 1 contains line plots showing NF-κB activity of exemplified compounds. 25k THP1-NF-κB-LUC cells were dispensed into 384 well plate (per well). […] Secreted luciferase activity were measured using quant-luc reagents (1 bag of luc reagent dilute to 40 mL, use 10 μL per well). […] 25k THP1-NF-κB-LUC cells were dispensed into 384 well plate (per well). […] Secreted luciferase activity were measured using quant-luc reagents (1 bag of luc reagent dilute to 40 mL, use 10 μL per well). […]

[
  {
    "Compound": "COc1cc(NS(=O)(=O)c2cc3c(cc2C)NC(=O)CO3)cc(OC)c1",
    "IC50": "> 10000 nM"
  },
  {
    "Compound": "CC1Oc2c(cc(Br)cc2S(=O)(=O)NCc2ccc(OC(F)(F)F)cc2)NC1=O (stereo not drawn)",
    "IC50": "< 100 nM"
  },
  {
    "Compound": "Cc1cc2c(cc1S(=O)(=O)Nc1cccc(Cl)c1)OCC(=O)N2",
    "IC50": "< 100 nM"
  },
  {
    "Compound": "CC1Oc2c(cc(Br)cc2S(=O)(=O)Nc2ccc(F)cc2)N(C)C1=O (stereo not drawn)",
    "IC50": "< 100 nM"
  },
  {
    "Compound": "CC(C)CC1Oc2c(cc(Br)cc2S(=O)(=O)Nc2ccc(F)c(F)c2)NC1=O (stereo not drawn)",
    "IC50": "< 100 nM"
  },
  {
    "Compound": "CC1Oc2cc(S(=O)(=O)Nc3ccc(F)c(F)c3)c(Br)cc2N(C)C1=O (stereo not drawn) [BC19786]",
    "IC50": "1000 to 10000 nM"
  },
  {
    "Compound": "CCc1cccc(NS(=O)(=O)c2cc3c(cc2Cl)NC(=O)C(CC)O3)c1 (stereo not drawn)",
    "IC50": "100 to 1000 nM"
  },
  {
    "Compound": "CC1Oc2cc(S(=O)(=O)Nc3cccc(Cl)c3)c(Br)cc2N(C)C1=O (stereo not drawn)",
    "IC50": "1000 to 10000 nM"
  },
  {
    "Compound": "CCc1ccc(NS(=O)(=O)c2cc3c(cc2C)N(C(C)=O)CCO3)cc1",
    "IC50": "1000 to 10000 nM"
  }
]

###

The following molecules are listed with their measured pIC50 values.
System: NF-κB
Procedure summary: NF-κB assay: THP1-NF-κB-LUC cells, LPS-stimulated secreted luciferase
Type: cell-based
Condition details: THP1-NF-κB-LUC cells; compounds 2 hours before LPS (10 ng/mL) for 18 hours; secreted luciferase; read-out: IC50 (NF-κB assay)
pIC50: −log10 of the molar value.

[
  {
    "Molecule": "COc1ccc(NS(=O)(=O)c2cc(Br)cc3c2OC(C)C(=O)N3C)cc1Cl (stereo not drawn)",
    "pIC50": "< 5.00"
  },
  {
    "Molecule": "CCC1Oc2cc(S(=O)(=O)Nc3ccc(Cl)cc3)c(Cl)cc2NC1=O (stereo not drawn)",
    "pIC50": "> 7.00"
  },
  {
    "Molecule": "CCC1Oc2c(cc(Br)cc2S(=O)(=O)Nc2ccc(F)cc2F)N(C)C1=O (stereo not drawn)",
    "pIC50": "> 7.00"
  },
  {
    "Molecule": "CCC1Oc2cc(S(=O)(=O)Nc3ccc(Cl)cc3)c(Br)cc2NC1=O (stereo not drawn)",
    "pIC50": "> 7.00"
  },
  {
    "Molecule": "Cc1cc2c(cc1S(=O)(=O)Nc1ccc(F)cc1F)OCCN2C",
    "pIC50": "5.00 to 6.00"
  },
  {
    "Molecule": "Cc1ccc(Cl)cc1NS(=O)(=O)c1cc2c(cc1C)NC(=O)CO2",
    "pIC50": "5.00 to 6.00"
  }
]

###

System: NF-κB
Procedure summary: NF-κB assay: THP1-NF-κB-LUC cells, LPS-stimulated secreted luciferase
Type: cell-based
Condition details: THP1-NF-κB-LUC cells; compounds 2 hours before LPS (10 ng/mL) for 18 hours; secreted luciferase; read-out: IC50 (NF-κB assay)
Method: FIG. 1 contains line plots showing NF-κB activity of exemplified compounds. 25k THP1-NF-κB-LUC cells were dispensed into 384 well plate (per well). […] Secreted luciferase activity were measured using quant-luc reagents (1 bag of luc reagent dilute to 40 mL, use 10 μL per well). […] 25k THP1-NF-κB-LUC cells were dispensed into 384 well plate (per well). […] Secreted luciferase activity were measured using quant-luc reagents (1 bag of luc reagent dilute to 40 mL, use 10 μL per well). […]
Here, each record is paired with measured IC50 data.

[
  {
    "Compound": "Cc1cc2c(cc1S(=O)(=O)Nc1cc(F)ccc1F)OCC(=O)N2",
    "IC50": "< 0.1 µM"
  },
  {
    "Compound": "O=c1c(S(=O)(=O)c2cccc(F)c2)c(O)[nH]c2ncccc12",
    "IC50": "> 10 µM"
  },
  {
    "Compound": "CC1Oc2cc(S(=O)(=O)Nc3ccc(F)c(F)c3)c(Cl)cc2NC1=O (stereo not shown)",
    "IC50": "< 0.1 µM"
  },
  {
    "Compound": "COc1ccc(NS(=O)(=O)c2cc3c(cc2Cl)NC(=O)C(C)O3)cc1Cl (stereo not shown)",
    "IC50": "1 to 10 µM"
  },
  {
    "Compound": "CC(=O)N1CCOc2cc(S(=O)(=O)Nc3c(C)cccc3C)c(C)cc21",
    "IC50": "> 10 µM"
  },
  {
    "Compound": "CC(C)CC1Oc2cc(S(=O)(=O)Nc3ccc(F)cc3Cl)c(Br)cc2NC1=O (stereo not shown)",
    "IC50": "> 10 µM"
  },
  {
    "Compound": "CS(=O)(=O)c1cc2c(c(S(=O)(=O)Nc3ccc(F)c(F)c3)c1)OCC(=O)N2",
    "IC50": "< 0.1 µM"
  },
  {
    "Compound": "Cc1cc2c(cc1S(=O)(=O)Nc1ccccc1)OCC(=O)N2",
    "IC50": "< 0.1 µM"
  },
  {
    "Compound": "Cc1cc2c(cc1S(=O)(=O)Nc1ccc(F)c(Cl)c1)OCC(=O)N2",
    "IC50": "< 0.1 µM"
  },
  {
    "Compound": "CC(C)CC1Oc2c(cc(Br)cc2S(=O)(=O)Nc2ccc(OC(F)(F)F)cc2)NC1=O (stereo not shown)",
    "IC50": "< 0.1 µM"
  },
  {
    "Compound": "Cc1ccc(NS(=O)(=O)c2cc3c(cc2C)N(C)CCO3)cc1F",
    "IC50": "> 10 µM"
  },
  {
    "Compound": "CCC1Oc2cc(S(=O)(=O)Nc3ccc(F)cc3)c(Cl)cc2NC1=O (stereo not shown)",
    "IC50": "0.1 to 1 µM"
  },
  {
    "Compound": "Cc1ccc(NS(=O)(=O)c2cc(Br)cc3c2OC(CC(C)C)C(=O)N3)cc1Cl (stereo not shown)",
    "IC50": "< 0.1 µM"
  },
  {
    "Compound": "CCS(=O)(=O)c1cc2c(c(S(=O)(=O)Nc3ccc(F)cc3Cl)c1)OCC(=O)N2",
    "IC50": "0.1 to 1 µM"
  },
  {
    "Compound": "CCOC(=O)c1cccc(NS(=O)(=O)c2cc3c(cc2C)NC(=O)CO3)c1",
    "IC50": "1 to 10 µM"
  },
  {
    "Compound": "CCCCN(c1ccccc1)S(=O)(=O)c1cc2c(cc1C)NC(=O)CO2",
    "IC50": "> 10 µM"
  },
  {
    "Compound": "CCC1Oc2c(cc(Cl)cc2S(=O)(=O)Nc2ccc(F)cc2Cl)NC1=O (stereo not shown)",
    "IC50": "< 0.1 µM"
  },
  {
    "Compound": "CC(=O)N1CCOc2cc(S(=O)(=O)Nc3ccccc3Br)c(C)cc21",
    "IC50": "> 10 µM"
  },
  {
    "Compound": "CCC1Oc2cc(S(=O)(=O)Nc3ccc(C)cc3)c(Br)cc2NC1=O (stereo not shown)",
    "IC50": "0.1 to 1 µM"
  }
]

###

Test system: NF-κB
Procedure summary: NF-κB assay: THP1-NF-κB-LUC cells, LPS-stimulated secreted luciferase
Format: cell-based
Condition details: THP1-NF-κB-LUC cells; compounds 2 hours before LPS (10 ng/mL) for 18 hours; secreted luciferase; read-out: IC50 (NF-κB assay)

[
  {
    "Molecule": "O=C1COc2c(cc(Br)cc2S(=O)(=O)NCc2ccc(F)cc2F)N1",
    "IC50": "> 10000 nM"
  },
  {
    "Molecule": "CCOc1ccc(NS(=O)(=O)c2cc(Cl)cc3c2OC(C)C(=O)N3)cc1 (centres unmarked)",
    "IC50": "< 100 nM"
  },
  {
    "Molecule": "CC1Oc2c(cc(Cl)cc2S(=O)(=O)Nc2ccc(C(C)C)cc2)NC1=O (centres unmarked)",
    "IC50": "< 100 nM"
  },
  {
    "Molecule": "CCCNS(=O)(=O)c1cc2c(cc1Br)NC(=O)C(CC)O2 (centres unmarked)",
    "IC50": "> 10000 nM"
  },
  {
    "Molecule": "CCC1Oc2cc(S(=O)(=O)Nc3ccc(F)cc3F)c(Br)cc2N(C)C1=O (centres unmarked)",
    "IC50": "100 to 1000 nM"
  }
]
